Reference source: patent US5985836A

System: Immunoglobulin A (IgA)
Test: Purification from Effluent II+III, IgA mass balance
Assay type: binding, human
Conditions: 1 ml Eff. II+III, 4° C.
Ends that are not written are not given here.
# Percent Eluted by Fraction, 2% Acetic Acid per record follows
Report the figure in % without appending any unit label.

>>> quantitative_result("PYWIVR")
22
>>> quantitative_result("RFIYYT")
38
>>> quantitative_result("ARWYIH")
56
>>> quantitative_result("IIWLYK")
49
>>> quantitative_result("QYHFWY")
38

Measured Percent Eluted by Fraction, 2% Acetic Acid, `RAFWYI` : 29

Documented Percent Eluted by Fraction, 2% Acetic Acid of `VIWLVR` : 39

---

Target: A1PI (Homo sapiens)
Construct: Human plasma is currently the only approved source of therapeutic AlPI
Experiment: A1PI binding on peptide-resin column, injection of 1 mg A1PI in equilibration buffer
Conditions: VIFLVR point mutations; 1 mg A1PI, 20° C.
Label Fulfilled when % of Total A1PI Eluted by Fraction (Based on Absorbance at 280 nm), 2% Acetic Acid is strictly below 80%; otherwise label Not fulfilled.

Field: example entries. Status: answers known.
>>> class_assignment("D I F L V R: point mutation of VIFLVR, position 1 (DIFLVR)")
"Fulfilled"
>>> class_assignment("V K F L V R: point mutation of VIFLVR, position 2 (VKFLVR)")
"Fulfilled"

Incoming: # TODO verify % of Total A1PI Eluted by Fraction (Based on Absorbance at 280 nm), 2% Acetic Acid < 80% strictly for this substance: V I F L A R: point mutation of VIFLVR, position 5 (VIFLAR)
Outgoing: Fulfilled

---

Target: A1PI (Homo sapiens)
Construct: Human plasma is currently the only approved source of therapeutic AlPI
Experiment: Purification of A1PI from Effluent II+III on peptide column, A1PI mass balance
Format: binding
Conditions: Table 11; 1 ml Eff. II+III, 4° C.; * Below detection limit
Ends that are not written are not given here.
Endpoint: Mass A1PI per Eluate Fraction, 1M NaCl
Lab note: write values as number then unit, every time.

Reference set (3 entries):
>>> result("V I S L V R: VIWLVR with Trp at position 3 replaced by Ser (VISLVR)")
"0.14 mg"
>>> result("V I V L V R: VIWLVR with Trp at position 3 replaced by Val (VIVLVR)")
"0.04 mg"
>>> result("VIWLVR")
"0.10 mg"

Mass A1PI per Eluate Fraction, 1M NaCl recorded for this substance, V I A L V R: VIWLVR with Trp at position 3 replaced by Ala (VIALVR) , is 0.05 mg

Input VIYLVR: VIWLVR with Trp at position 3 replaced by Tyr . Output Mass A1PI per Eluate Fraction, 1M NaCl: 0.05 mg

Entry V I L L V R: VIWLVR with Trp at position 3 replaced by Leu (VILLVR) ; Mass A1PI per Eluate Fraction, 1M NaCl = 0.07 mg

---

# reported Percent Eluted by Fraction, Flow; entries follow
Molecular target: A1PI (Homo sapiens, UniProt P01009)
Construct: Human plasma is currently the only approved source of therapeutic AlPI
Sequence (P01009 25-418): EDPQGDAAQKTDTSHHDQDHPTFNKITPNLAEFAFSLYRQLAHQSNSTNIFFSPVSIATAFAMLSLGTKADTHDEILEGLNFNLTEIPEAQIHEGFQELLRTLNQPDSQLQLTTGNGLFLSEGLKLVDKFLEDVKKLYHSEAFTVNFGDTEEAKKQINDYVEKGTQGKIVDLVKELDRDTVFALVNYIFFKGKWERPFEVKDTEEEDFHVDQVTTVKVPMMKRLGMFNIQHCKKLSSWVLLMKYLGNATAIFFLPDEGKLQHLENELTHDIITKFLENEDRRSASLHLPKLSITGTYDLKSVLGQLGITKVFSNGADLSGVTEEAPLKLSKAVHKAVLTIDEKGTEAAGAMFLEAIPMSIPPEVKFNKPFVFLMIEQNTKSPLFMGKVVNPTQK
Experiment: A1PI purification from 5 mg hSA + 1 mg A1PI on peptide column, A1PI mass balance
Type: binding
Conditions: A1PI; 5 mg hSA + 1 mg A1PI, 20° C.; relative to total eluted
Ends that are not written are not given here.
Show the value, then the unit it is measured in.

>>> result("RLWRYG")
"0%"
>>> result("WIKWTK")
"3%"
>>> result("IIWLYK")
"33%"
>>> result("LIVHRW")
"39%"
>>> result("VIWLVR")
"9%"

Per the record, `WKLWRW` has Percent Eluted by Fraction, Flow of 21%
